- experiment_summary: Inhibition of beta-lactamase CTX-M9a using nitrocefin as substrate after 30 mins by spectrophotometric analysis
pKi: −log10 of the molar value.
Items are presented alongside their recorded pKi.

Examples with their reported pKi follow.
compound=O=C(O)c1cnc(Oc2ccc3c(c2)B(O)OC3)cn1 property_measured=pKi assay_result="< 4.49"
compound=OB1OCc2ccc(Oc3ccccc3)cc21 property_measured=pKi assay_result=5.72
compound=CCOC(=O)c1ccc(Oc2ccc3c(c2)B(O)OC3)cc1 property_measured=pKi assay_result="< 4.49"
compound=O=C(c1ccccc1)c1ccc2c(c1)B(O)OC2 property_measured=pKi assay_result="< 4.49"
compound=COc1cccc(Oc2ccc3c(c2)B(O)OC3)c1 property_measured=pKi assay_result=5.96

input: Can you share its pKi? I mean this compound: "COc1ccc(Oc2ccc3c(c2)B(O)OC3)cc1"
output: 4.85

input: Now give it for "OCc1cccc(Oc2ccc3c(c2)B(O)OC3)c1" too.
output: 5.72

input: Now this one: "O=S(=O)(c1ccccc1)c1ccc2c(c1)B(O)OC2"
output: < 4.49

input: Please give the result for "OB1OCc2ccc(Nc3ccccc3)cc21" too.
output: < 4.49

input: What do you get for "O=C(O)c1cnc(Oc2ccc3c(c2)B(O)OC3)nc1" ?
output: < 4.49

input: Now the same for "OB1OCc2ccc(Oc3cccc(OCc4ccccc4)c3)cc21"
output: 5.06

input: Also "OB1OCc2ccc(Oc3cccc(O)c3)cc21" ?
output: 6.09

input: // query: [O-][S+](c1ccccc1)c1ccc2c(c1)B(O)OC2 (centres undefined)
output: < 4.49

input: Entry to check: "Nc1cccc(Oc2ccc3c(c2)B(O)OC3)c1"
output: 6.16

input: Follow-up item: "O=C(Nc1ccc2c(c1)B(O)OC2)c1ccccc1"
output: < 4.49

input: And then "O=C(ONc1ccccc1)c1ccc2c(c1)B(O)OC2" , what is it?
output: < 4.49

input: Another compound: "OB1OCc2ccc(Cc3ccccc3)cc21"
output: < 4.49

input: Also OB1OCc2ccc(C(O)c3ccccc3)cc21 (centres undefined) ?
output: < 4.49

input: Follow-up item: "OB1OCc2ccc(Sc3ccccc3)cc21"
output: < 4.49

###

- target_under_test: Beta-lactamase (Enterobacter cloacae, UniProt P05364)
- Sequence (P05364 whole entry): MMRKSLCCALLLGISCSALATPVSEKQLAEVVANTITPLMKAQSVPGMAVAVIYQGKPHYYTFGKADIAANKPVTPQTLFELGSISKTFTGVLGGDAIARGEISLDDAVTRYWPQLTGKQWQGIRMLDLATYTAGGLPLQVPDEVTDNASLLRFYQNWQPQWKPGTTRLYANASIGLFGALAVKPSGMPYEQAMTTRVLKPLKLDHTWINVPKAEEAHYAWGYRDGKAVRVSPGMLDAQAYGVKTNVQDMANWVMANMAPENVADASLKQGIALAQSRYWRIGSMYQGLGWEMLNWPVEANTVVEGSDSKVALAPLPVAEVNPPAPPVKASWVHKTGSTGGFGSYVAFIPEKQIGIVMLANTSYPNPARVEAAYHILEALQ
- experiment_summary: Inhibition of Enterobacter cloacae P99 beta-lactamase AmpC P99 using nitrocefin as substrate after 30 mins by spectrophotometric analysis
Measured Ki values are reported for all entries that follow.
Report the value in µM with no unit label.

Solved cases (5 shown):
compound="OB1OCc2ccc(C(O)c3ccccc3)cc21 (configuration not stated)" assay_result=7.28
compound=NCc1cccc(Oc2ccc3c(c2)B(O)OC3)c1 assay_result=3.33
compound=O=S(=O)(c1ccccc1)c1ccc2c(c1)B(O)OC2 assay_result=63.2
compound=Nc1cccc(Oc2ccc3c(c2)B(O)OC3)c1 assay_result=2.75
compound=O=C(O)c1ccc(Oc2ccc3c(c2)B(O)OC3)cc1 assay_result=0.02

input: Consider the compound "NCc1ccc(Oc2ccc3c(c2)B(O)OC3)cc1" and give its measured Ki.
output: 13.3

input: What do you get for "CN(C)Cc1cccc(Oc2ccc3c(c2)B(O)OC3)c1" ?
output: 7.72

###

# log10(Ki) listing for each entry below
- target_under_test: Beta-lactamase (Enterobacter cloacae, UniProt P05364)
- experiment_summary: Inhibition of Enterobacter cloacae P99 beta-lactamase AmpC P99 using nitrocefin as substrate after 30 mins by spectrophotometric analysis
Please keep in mind that the values are log10 of Ki expressed in µM.

Completed entries (count: 5):
smiles_repr=Nc1ccc(Oc2ccc3c(c2)B(O)OC3)cc1 target_under_test="Beta-lactamase (Enterobacter cloacae, UniProt P05364)" property_measured=log10(Ki) assay_result=0.94
smiles_repr=O=C(Nc1ccc2c(c1)B(O)OC2)c1ccccc1 target_under_test="Beta-lactamase (Enterobacter cloacae, UniProt P05364)" property_measured=log10(Ki) assay_result=1.67
smiles_repr=OB1OCc2ccc(Oc3ccccc3)cc21 target_under_test="Beta-lactamase (Enterobacter cloacae, UniProt P05364)" property_measured=log10(Ki) assay_result=-0.15
smiles_repr=CCOC(=O)c1ccc(Oc2ccc3c(c2)B(O)OC3)cc1 target_under_test="Beta-lactamase (Enterobacter cloacae, UniProt P05364)" property_measured=log10(Ki) assay_result=0.74
smiles_repr=OCc1cccc(Oc2ccc3c(c2)B(O)OC3)c1 target_under_test="Beta-lactamase (Enterobacter cloacae, UniProt P05364)" property_measured=log10(Ki) assay_result=0.92

input: Look up log10(Ki): "OB1OCc2ccc(Sc3ccccc3)cc21"
output: 0.96

input: Another molecule to check: "OB1OCc2ccc(Cc3ccccc3)cc21"
output: 1.30
